assay text: LAP4-GFP expression modulators in yeast, confirmation, cell-based, cherry picks, flow cytometry, mother/daughter gates (AID 2271);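 also: ratio of sample to DMSO plate mean so 100% equals DMSO level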
conditions: S. cerevisiae LAP4-GFP strain, 3 h, at 10 µM, 100 means same as DMSO control
The source made the active and inactive calls.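 The calls were made as follows: active = GFP response above 150% of the DMSO control; inconclusive = fewer than 70 events counted in any yeast strain; inactive = the rest.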
Possible outcomes: active, inactive

INSERT INTO assay_data (compound, cat) VALUES
  ('O=C(Nc1nc2ccc(F)cc2s1)c1ccccn1', 'active'),
  ('Cc1c([N+](=O)[O-])cnc(Sc2ccccc2)c1[N+](=O)[O-]', 'inactive'),
  ('O=C1c2ccsc2SCCN1Cc1c(F)cccc1Cl', 'inactive'),
  ('COc1ccc(-c2noc(CCC(=O)Nc3cccc(C)c3)n2)cc1', 'inactive'),
  ('CCN(CC)CCN(C(=O)c1ccc2c(c1)CCCC2)c1nc2cc(OC)c(OC)cc2s1', 'inactive'),
  ('Cc1ccccc1NC(=O)CC1SC(=O)N(c2ccccc2)C1=O (stereo not drawn)', 'inactive'),
  ('COc1ccccc1N1C(=O)CC(Sc2ncccc2C(=O)O)C1=O (stereo not drawn)', 'inactive'),
  ('CCNC(=O)/C(C#N)=C/c1c(N2CC(C)OC(C)C2)nc2ccccn2c1=O (stereo not drawn)', 'inactive');

---

assay text: modulators of CIT2-GFP expression in yeast, confirmation, S. cerevisiae, GFP fusion, cherry picks, mother/daughter gates (AID 2274)
conditions: S. cerevisiae CIT2-GFP strain, flow cytometry, 3 h; measured here: mother cell gate; at 10 µM; stronger effect = higher value
readout label: GFP response, % of DMSO (%)

INSERT INTO measurements (compound, readout_label, reading_unit, numeric_readout) VALUES
  ('Nc1cccnc1S(=O)(=O)c1cccc(C(F)(F)F)c1', 'GFP response, % of DMSO', '%', 93.8),
  ('O=C(Nc1ccc(NC(=O)c2cc3ccccc3o2)cc1)c1ccc2c(c1)OCCO2', 'GFP response, % of DMSO', '%', 107),
  ('O=[N+]([O-])c1cc(O)c2ncccc2c1', 'GFP response, % of DMSO', '%', 131),
  ('CCOC(=O)C1=C(Cc2ccc(F)cc2)C(=O)c2ccccc2C1=O', 'GFP response, % of DMSO', '%', 92.1),
  ('Cc1cc(C(=O)Nc2nc(-c3ccccn3)cs2)ccc1[N+](=O)[O-]', 'GFP response, % of DMSO', '%', 99.3),
  ('CCOc1ccccc1/C=C/C(=O)c1ccc(Cl)cc1', 'GFP response, % of DMSO', '%', 102),
  ('COc1ccc(/C=C/C(=O)NC(=S)NNC(=O)c2cnccn2)cc1', 'GFP response, % of DMSO', '%', 106),
  ('COc1cc(/C=N/Nc2nc(C)cc(=O)[nH]2)ccc1O', 'GFP response, % of DMSO', '%', 115),
  ('O=C(Cn1c(=O)oc2cc(S(=O)(=O)N3CCCC3)ccc21)Nc1ccccc1Br', 'GFP response, % of DMSO', '%', 102),
  ('O=C(O)c1ccc(Sc2ccccn2)c([N+](=O)[O-])c1', 'GFP response, % of DMSO', '%', 98.5),
  ('Cn1c(=O)c(C(=O)Nc2ncccc2O)c(O)c2ccccc21', 'GFP response, % of DMSO', '%', 88.2),
  ('Nc1ccccc1SC(C[N+](=O)[O-])c1ccccc1 (stereo not drawn)', 'GFP response, % of DMSO', '%', 81.8),
  ('O=C(COC(=O)c1n[nH]c2ccccc12)c1ccc(F)c(F)c1', 'GFP response, % of DMSO', '%', 98.2),
  ('N/C(=N\OC(=O)c1cccc(Br)c1)c1ccccc1', 'GFP response, % of DMSO', '%', 140),
  ('CCCc1[nH]nc2c1C1(C(=O)N(C(C)C)c3ccccc31)C(C#N)=C(N)O2 (stereo not drawn)', 'GFP response, % of DMSO', '%', 99.3),
  ('COc1ccc(N2C(=O)C(Cl)=C(Nc3c(C)n(C)n(-c4ccccc4)c3=O)C2=O)cc1', 'GFP response, % of DMSO', '%', 87.5),
  ('COc1ccccc1N=Nc1ccc(O)c2ncccc12', 'GFP response, % of DMSO', '%', 161),
  ('Cc1ccccc1N1C(=O)c2sc3nc4c(c(=O)n3c2C1=O)CCC4', 'GFP response, % of DMSO', '%', 88.2),
  ('COCCn1c(=N)c(C(=O)NCc2ccco2)cc2c(=O)n3ccccc3nc21', 'GFP response, % of DMSO', '%', 97.1),
  ('COC(=O)c1ccc2nc(Nc3nc4ccc(F)cc4s3)sc2c1', 'GFP response, % of DMSO', '%', 109),
  ('CCCS(=O)(=O)N1CCC(C(=O)c2cccc(C(F)(F)F)c2)CC1', 'GFP response, % of DMSO', '%', 89.1),
  ('Cc1ccccc1N1C(=O)c2cccc3c(N(C)CCO)ccc(c23)C1=O', 'GFP response, % of DMSO', '%', 100),
  ('Cc1ccc2nc(Cl)c3nnnn3c2c1', 'GFP response, % of DMSO', '%', 72.3);
